assay.system: Chromobox protein homolog 1 (Homo sapiens)
method.summary: HTS for Inhibitors of HP1-beta Chromodomain Interactions with Methylated Histone Tails; further: nearly all actives have a fitted effect of over 70% in size
details: AlphaScreen HP1-beta / biotin-H3K9me3 peptide binding; series mostly up to 114 µM
Among all 390,000 compounds or so, about 2,200 (0.56%) were called active. Another 3% or so got no clear call; they are omitted. The call rests on the fitted dose curve; in most records, active means well fitted inhibition curve with a large enough effect; inconclusive means small, poorly fitted or top-dose-only effect; inactive means no such curve, though single readings can be large or run the other way. This excerpt belongs to a sample that is enriched for actives.
Thanks in advance; please answer with one of these: yes (1) = active, no (0) = inactive

Before answering, review these 5 worked examples.
>  <compound>
CC1(C)C/C(=N/Nc2ccc([N+](=O)[O-])cc2[N+](=O)[O-])C(C)(C)O1

>  <assigned.class>
no (0)

$$$$
>  <compound>
COc1ccc(OCCCn2c(C3CC(=O)N(c4ccc(F)cc4)C3)nc3ccccc32)cc1 (configuration not stated)

>  <assigned.class>
no (0)

$$$$
>  <compound>
C=CCCN(C(Cc1ccccc1)C(=O)OC)S(=O)(=O)c1cc(Br)ccc1Br (configuration not stated)

>  <assigned.class>
no (0)

$$$$
>  <compound>
C[n+]1ccccc1C1CCCC/C1=N\Nc1ccc([N+](=O)[O-])cc1[N+](=O)[O-] (configuration not stated)

>  <assigned.class>
no (0)

$$$$
>  <compound>
COc1ccc(CCn2c3c(c(=O)[nH]c2=S)CN(C(C)C)CN3)cc1OC

>  <assigned.class>
no (0)

$$$$

Called result for Cc1ccc(Cl)cc1NC(=O)CCS(=O)(=O)c1ccc(Br)s1 no (0)

Called result for O=[N+]([O-])c1ccc(Oc2ccc(F)cc2Br)c2ccncc12 yes (1)

Called result for CCOc1ccc(S(=O)(=O)NCCC(=O)NCC2CCCO2)cc1 (configuration not stated) no (0)

Called result for Cc1nn(C)cc1/C=C1\CCC/C(=C\c2cn(C)nc2C)C1=O no (0)

Called result for O=C(Nc1ccccc1Br)c1cc(CN2CCCC2)on1 no (0)

Called result for COc1ccc(C2CC(O)(c3ccccc3)Oc3cc(C)cc(C)c32)cc1 (configuration not stated) no (0)

Called result for CCCNC(=O)C1CCN(c2nc3ccc(C)cc3[nH]2)CC1 no (0)

====

assay.system: Chromobox protein homolog 1 (Homo sapiens)
method.summary: HTS for Inhibitors of HP1-beta Chromodomain Interactions with Methylated Histone Tails; further: nearly all actives have a fitted effect of over 70% in size
details: AlphaScreen HP1-beta / biotin-H3K9me3 peptide binding; series mostly up to 114 µM
About 2,200 (0.56%) of roughly 390,000 compounds were called active. Roughly 3% stayed inconclusive and do not appear here. The call rests on the fitted dose curve; in most records, active means well fitted inhibition curve with a large enough effect; inconclusive means small, poorly fitted or top-dose-only effect; inactive means no such curve, though single readings can be large or run the other way. The full list was thinned out, with actives kept by preference.
Thanks in advance; please answer with one of these: active, inactive

Before answering, review these 6 worked examples.
>  <molecule>
O=C(Nc1cccc2cccnc12)c1cccc2c(Br)cccc12

>  <assigned.class>
inactive

$$$$
>  <molecule>
Nc1ccccc1SC(C[N+](=O)[O-])c1ccccc1 (stereo not given)

>  <assigned.class>
active

$$$$
>  <molecule>
CCN1CCN(c2ccc([N+](=O)[O-])cc2C(=O)c2ccc(Cl)cc2)CC1

>  <assigned.class>
inactive

$$$$
>  <molecule>
CCOC(=O)c1c(C)n(S(=O)(=O)c2ccc(C)cc2C)c2ccc(NS(=O)(=O)c3ccc(C)cc3C)cc12

>  <assigned.class>
inactive

$$$$
>  <molecule>
COc1ccc(CCNC(=O)c2ccc(-n3c(C)cc4c3CCCC4)cc2)cc1OC

>  <assigned.class>
inactive

$$$$
>  <molecule>
O=C1CSC(=S)N1/N=C/c1ccc(O)c([N+](=O)[O-])c1

>  <assigned.class>
active

$$$$

Called result for O=[N+]([O-])c1ccc(N2CCN(c3ccc(O)cc3)CC2)c(Cl)c1 active

Called result for O=C(O)C1CCN(c2ccc([N+](=O)[O-])cc2[N+](=O)[O-])CC1 inactive

Called result for CCOC(=O)c1c(C)oc2nc(C)nc(Nc3ccc(CC)cc3)c12 inactive

Called result for Cc1ccc(S(=O)(=O)N2CCN(c3nc(-n4cnc5ccccc54)nc4ccccc34)CC2)cc1 inactive

====

assay.system: Chromobox protein homolog 1 (Homo sapiens)
method.summary: HTS for Inhibitors of HP1-beta Chromodomain Interactions with Methylated Histone Tails; further: nearly all actives have a fitted effect of over 70% in size; further: potency means the concentration at half of the fitted maximal effect
details: AlphaScreen HP1-beta / biotin-H3K9me3 peptide binding; series mostly up to 114 µM
The campaign covered roughly 390,000 compounds. About 2,200 (0.56%) were called active. Inconclusive results (about 3%) are left out. Many of the other results were omitted from the sample, so actives are more common in it than they were.
property: Potency

>  <compound>
COc1ccc(/C=C2/C(=O)N(c3ccccc3)N=C2C)c(OC)c1

>  <measured>
12.6 µM (active)

$$$$
>  <compound>
COc1ccc(CN(Cc2ccccc2)C(=O)c2ccc(O)cc2)cc1COc1ccc(NC(C)=O)cc1

>  <measured>
inactive

$$$$
>  <compound>
CN(C)c1ccc(Nc2c3c4c(cccc4n(C)c2=O)C(=O)c2ccccc2-3)cc1

>  <measured>
4.47 µM (active)

$$$$
>  <compound>
N#Cc1cc2[nH]c(=O)c(=O)[nH]c2cc1[N+](=O)[O-]

>  <measured>
inactive

$$$$
>  <compound>
O=C(Nc1ccc(Br)cc1)c1ccc(Br)c(S(=O)(=O)NCc2ccccc2)c1

>  <measured>
inactive

$$$$

Report Potency for COc1ccc(/C=C2/C(=O)OCc3cc(OC)c(OC)cc32)c(OC)c1 tested on Chromobox protein homolog 1 (Homo sapiens). inactive

Report Potency for CCN(C(=O)Cn1cnc2sc(C)c(S(=O)(=O)N3CCN(c4ncccn4)CC3)c2c1=O)c1ccccc1F tested on Chromobox protein homolog 1 (Homo sapiens). inactive

Report Potency for COc1ccc(OC)c(-n2nnc(-c3nc(-c4cc(OC)c(OC)c(OC)c4)no3)c2C)c1 tested on Chromobox protein homolog 1 (Homo sapiens). inactive

Report Potency for O=C(CN1CCN(c2ncc(C(F)(F)F)cc2Cl)CC1)Nc1ccc2c(c1)OCO2 tested on Chromobox protein homolog 1 (Homo sapiens). inactive

Report Potency for CCOC(=O)C1=C(CC)Nc2ccccc2N=C1N tested on Chromobox protein homolog 1 (Homo sapiens). inactive

Report Potency for CCc1nnc(SCC(=O)Nc2cc(OC)ccc2OC)nc1CC tested on Chromobox protein homolog 1 (Homo sapiens). inactive

Report Potency for O=C(CSc1nc2ccccc2nc1Cc1ccccc1)N1CCCCC1 tested on Chromobox protein homolog 1 (Homo sapiens). inactive

Report Potency for CCOC(=O)C1=C(c2ccc(OC)cc2)C(=O)c2ccccc2C1=O tested on Chromobox protein homolog 1 (Homo sapiens). 31.6 µM (active)

====

assay.system: Chromobox protein homolog 1 (Homo sapiens)
method.summary: HTS for Inhibitors of HP1-beta Chromodomain Interactions with Methylated Histone Tails; further: nearly all actives have a fitted effect of over 70% in size
details: AlphaScreen HP1-beta / biotin-H3K9me3 peptide binding; series mostly up to 114 µM
About 2,200 (0.56%) of roughly 390,000 compounds were called active. Roughly 3% stayed inconclusive and do not appear here. Calls come from the whole dose curve; as a rule, active = well fitted inhibition curve with a large enough effect; inconclusive = small, poorly fitted or top-dose-only effect; inactive = no such curve, though single readings can be large or run the other way. Shown is part of a subset that was picked to be rich in actives.
Thanks in advance; please answer with one of these: active, inactive

>  <molecule>
CN(Cc1ccccc1)C(=O)c1cn(C)c2ccc(S(=O)(=O)N(C)C3CCCCC3)cc2c1=O

>  <assay.system>
Chromobox protein homolog 1 (Homo sapiens)

>  <assigned.class>
inactive

$$$$

Called result for CC1CCc2noc(NC(=O)c3ccc([N+](=O)[O-])cc3)c2C1 (stereo not given) inactive

Called result for CCOC(=O)N1CCc2c(sc3c2c(=O)n(-c2ccc(CC)cc2)c(=O)n3C)C1 inactive

====

assay.system: Chromobox protein homolog 1 (Homo sapiens) (UniProt P83916)
Sequence (P83916 whole entry, looked up): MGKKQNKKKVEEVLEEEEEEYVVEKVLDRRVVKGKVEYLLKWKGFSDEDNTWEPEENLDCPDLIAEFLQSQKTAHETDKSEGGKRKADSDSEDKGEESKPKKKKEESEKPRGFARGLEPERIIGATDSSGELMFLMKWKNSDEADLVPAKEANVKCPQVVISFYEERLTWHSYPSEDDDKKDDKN
method.summary: HTS for Inhibitors of HP1-beta Chromodomain Interactions with Methylated Histone Tails; further: nearly all actives have a fitted effect of over 70% in size
details: AlphaScreen HP1-beta / biotin-H3K9me3 peptide binding; series mostly up to 114 µM
Hit rate of the full screen: of about 390,000 compounds, about 2,200 (0.56%) were called active. Another 3% or so got no clear call; they are omitted. Calls come from the whole dose curve; as a rule, active = well fitted inhibition curve with a large enough effect; inconclusive = small, poorly fitted or top-dose-only effect; inactive = no such curve, though single readings can be large or run the other way. Only a selection was taken, and actives are over-represented in it overall.
Thanks in advance; please answer with one of these: active, inactive

Before answering, review these 5 worked examples.
>  <compound>
NS(=O)(=O)c1ccc(NC(=O)CSc2nnc3c(n2)[nH]c2ccccc23)cc1

>  <assay.system>
Chromobox protein homolog 1 (Homo sapiens) (UniProt P83916)

>  <assigned.class>
inactive

$$$$
>  <compound>
CC(=O)N(C1=C(Cl)C(=O)c2ccccc2C1=O)c1ccc(C(=O)O)cc1

>  <assay.system>
Chromobox protein homolog 1 (Homo sapiens) (UniProt P83916)

>  <assigned.class>
active

$$$$
>  <compound>
CC(C)OP(=O)(OC(C)C)C(Nc1ccccc1)c1cccc([N+](=O)[O-])c1 (stereo not given)

>  <assay.system>
Chromobox protein homolog 1 (Homo sapiens) (UniProt P83916)

>  <assigned.class>
inactive

$$$$
>  <compound>
CC(=O)Nc1ccc(S(=O)(=O)Nc2ccc(N3CCCCC3)cc2)cc1

>  <assay.system>
Chromobox protein homolog 1 (Homo sapiens) (UniProt P83916)

>  <assigned.class>
active

$$$$
>  <compound>
CC(=O)Nc1ccc(S(=O)(=O)N2CCN(c3ccccc3)CC2)cc1

>  <assay.system>
Chromobox protein homolog 1 (Homo sapiens) (UniProt P83916)

>  <assigned.class>
inactive

$$$$

Called result for CC(C)Cn1c(=O)c2ccccc2n2c(CCC(=O)N3CCN(c4cccc(Cl)c4)CC3)nnc12 inactive

Called result for CC(=O)Nc1ccc(S(=O)(=O)N2CCCC2C(=O)O)cc1 (stereo not given) inactive
